The reported numbers originate from patent EP3858438A1.

Give measured pKi for each item. Keep answers brief.
pKi: −log10 of the molar value. Where a name gives a salt, the structure may show the parent alone.

Ask | What value of pKi on human µ-opioid receptor (Homo sapiens) does CC[C@@H](c1cccc(Cl)c1)[C@@H](CNC)C(=O)N1CCC2(CC1)c1ccccc1CCN2C [Example 3, dihydrochloride] have?
Reply | 6.30 to 7.00

Ask | Request: pKi, test system human µ-opioid receptor (Homo sapiens), entry CNC[C@@H](C(=O)N1CCC2(CC1)c1ccccc1CCN2C)[C@@H](C)c1ccccc1
Reply | 6.30 to 7.00

Ask | Any idea what pKi came out for CC[C@@H](c1cccc(Cl)c1)[C@@H](CN)C(=O)N1CCC2(CC1)c1ccccc1CCN2C on human µ-opioid receptor (Homo sapiens)?
Reply | > 7.00

Ask | // lookup pKi | system=human µ-opioid receptor (Homo sapiens) | key= CC[C@@H](c1ccccc1)[C@@H](CN)C(=O)N1CCC2(CC1)c1ccccc1CCN2C
Reply | > 7.00
